Could you please report measured combination Emax for the items listed next?
- Tested on: CAL-51 (Breast Carcinoma)
- protocol.text: combination Emax (second highest fraction inhibited in the dose matrix, 72 h); higher = more inhibition; extreme values may be limits of the assay
Answers are plain numbers.

Worked cases, answers included:
molecule	metric.name	recorded.value
COc1nnc2ccc(N3CCC(c4ccc(OCCN5CCN(C)C(=O)[C@H]5C)cc4)CC3)nn12 [AZD5153] + C=CCn1c(=O)c2cnc(Nc3ccc(N4CCN(C)CC4)cc3)nc2n1-c1cccc(C(C)(C)O)n1 [AZD1775] (first compound max 1 µM, partner max 1 µM)	combination Emax	0.956
COc1nnc2ccc(N3CCC(c4ccc(OCCN5CCN(C)C(=O)[C@H]5C)cc4)CC3)nn12 [AZD5153] + CCN(CCO)CCCOc1ccc2c(Nc3cc(CC(=O)Nc4cccc(F)c4)[nH]n3)ncnc2c1 [AZD2811] (first compound max 1 µM, 7x7, partner max 1 µM)	combination Emax	0.807

Exam item: Respond only with combination Emax recorded for NC1(C(=O)N[C@@H](CCO)c2ccc(Cl)cc2)CCN(c2ncnc3[nH]ccc23)CC1 [Capivasertib] + CCN(CCO)CCCOc1ccc2c(Nc3cc(CC(=O)Nc4cccc(F)c4)[nH]n3)ncnc2c1 [AZD2811] (first compound max 10 µM, 7x7, partner max 1 µM)
Marked response: 0.651

---

- System: NCI-H2795 (Mesothelioma)
- protocol.text: combination Emax (second highest fraction inhibited in the dose matrix, 72 h); higher = more inhibition; extreme values may be limits of the assay
For each of the compounds below, state its combination Emax.
Give bare numbers.

compound	assayed.system	recorded.value
Cc1cc2ncnn2cc1Nc1ncc2c(n1)n(C1CCOCC1)c(=O)n2C [AZD7648] + COc1cc([C@@H]2c3cc4c(cc3[C@@H](O[C@@H]3O[C@@H]5CO[C@@H](C)O[C@H]5[C@H](O)[C@H]3O)[C@H]3COC(=O)[C@H]23)OCO4)cc(OC)c1O [Etoposide] (first compound max 10 µM, 7x7, partner max 10 µM)	NCI-H2795 (Mesothelioma)	0.686

Answer for every listed entry: what is its combination Emax? The entries follow.
1. C[C@@H]1COCCN1c1cc(C2([S@](C)(=N)=O)CC2)nc(-c2ccnc3[nH]ccc23)n1 [AZD6738] + Nc1ccn([C@@H]2O[C@H](CO)[C@@H](O)C2(F)F)c(=O)n1 [Gemcitabine] (first compound max 10 µM, 7x7, partner max 0.3 µM)
2. N#Cc1cnc(Nc2cc(NC[C@H]3CNCCO3)c(C(F)(F)F)cn2)cn1 [SRA737] + Nc1ccn([C@@H]2O[C@H](CO)[C@@H](O)C2(F)F)c(=O)n1 [Gemcitabine] (first compound max 10 µM, 7x7, partner max 0.3 µM)
3. Cc1c2c(nn1C)CSCc1cc(n(C)n1)CSc1cc(c3ccccc3c1)OCCCc1c(C(=O)O)n(C)c3c-2c(Cl)ccc13 [AZD5991] + C1CN(CCC1(C(=O)N[C@@H](CCO)C2=CC=C(C=C2)Cl)N)C3=NC=NC4=C3C=CN4 [Capivasertib] (first compound max 1 µM, 7x7, partner max 3 µM)
4. Cc1c2c(nn1C)CSCc1cc(n(C)n1)CSc1cc(c3ccccc3c1)OCCCc1c(C(=O)O)n(C)c3c-2c(Cl)ccc13 [AZD5991] + CCN(CCO)CCCOc1ccc2c(Nc3cc(CC(=O)Nc4cccc(F)c4)[nH]n3)ncnc2c1 [AZD2811] (first compound max 1 µM, 7x7, partner max 1 µM)
5. COc1cccc(OCCCN)c1-c1cc(Nc2cnc(C#N)cn2)n[nH]1 [Prexasertib] + O=C(c1cc(Cc2n[nH]c(=O)c3ccccc23)ccc1F)N1CCN(C(=O)C2CC2)CC1 [Olaparib] (first compound max 1 µM, 7x7, partner max 10 µM)
6. NC1(C(=O)N[C@@H](CCO)c2ccc(Cl)cc2)CCN(c2ncnc3[nH]ccc23)CC1 [Capivasertib] + Cn1cnc2c(F)c(Nc3ccc(Br)cc3Cl)c(C(=O)NOCCO)cc21 [Selumetinib] (first compound max 10 µM, 7x7, partner max 10 µM)

Marked response:
1: 0.874; 2: 0.804; 3: 0.85; 4: 0.762; 5: 0.674; 6: 0.871

---

- Tested on: SU-DHL-6 (B-Cell Non-Hodgkin's Lymphoma)
- protocol.text: combination Emax (second highest fraction inhibited in the dose matrix, 72 h); higher = more inhibition; extreme values may be limits of the assay
Please provide measured combination Emax for the entries that follow.

compound	combination Emax
COc1cc2ncnc(Nc3ccc(F)c(Cl)c3)c2cc1OCCCN1CCOCC1 [Gefitinib] + CC(C)n1c(=O)n(C)c2cnc3cc(F)c(-c4ccc(OCCCN5CCCCC5)nc4)cc3c21 [AZD1390] (first compound max 10 µM, 7x7, partner max 0.3 µM)	0.433

// batch mode: one combination Emax value per listed entry
1. C[C@@H](Oc1cc(-c2cnn(C3CCNCC3)c2)cnc1N)c1c(Cl)ccc(F)c1Cl [Crizotinib] + Cn1cnc2c(F)c(Nc3ccc(Br)cc3Cl)c(C(=O)NOCCO)cc21 [Selumetinib] (first compound max 10 µM, 7x7, partner max 10 µM)
2. CC1(C)CCC(CN2CCN(c3ccc(C(=O)NS(=O)(=O)c4ccc(NCC5CCOCC5)c([N+](=O)[O-])c4)c(Oc4cnc5[nH]ccc5c4)c3)CC2)=C(c2ccc(Cl)cc2)C1 [Venetoclax] + Cc1cc2ncnn2cc1Nc1ncc2c(n1)n(C1CCOCC1)c(=O)n2C [AZD7648] (first compound max 1 µM, 7x7, partner max 10 µM)
3. Cc1cc2ncnn2cc1Nc1ncc2c(n1)n(C1CCOCC1)c(=O)n2C [AZD7648] + CN(C)CCCOc1ccc(-c2ccc3ncc4c(c3c2)n(C2CCOCC2)c(=O)n4C)cn1 [AZD0156] (first compound max 10 µM, 7x7, partner max 1 µM)
4. Cc1c2c(nn1C)CSCc1cc(n(C)n1)CSc1cc(c3ccccc3c1)OCCCc1c(C(=O)O)n(C)c3c-2c(Cl)ccc13 [AZD5991] + CC(=O)O[C@H]1C(=O)[C@@]2(C)[C@H]([C@H](OC(=O)c3ccccc3)[C@]3(O)C[C@H](OC(=O)[C@H](O)[C@@H](NC(=O)c4ccccc4)c4ccccc4)C(C)=C1C3(C)C)[C@]1(OC(C)=O)CO[C@@H]1C[C@@H]2O [Paclitaxel] (first compound max 1 µM, 7x7, partner max 3 µM)
5. Cc1c2c(nn1C)CSCc1cc(n(C)n1)CSc1cc(c3ccccc3c1)OCCCc1c(C(=O)O)n(C)c3c-2c(Cl)ccc13 [AZD5991] + CCN(CCO)CCCOc1ccc2c(Nc3cc(CC(=O)Nc4cccc(F)c4)[nH]n3)ncnc2c1 [AZD2811] (first compound max 1 µM, 7x7, partner max 1 µM)
6. Cc1c2c(nn1C)CSCc1cc(n(C)n1)CSc1cc(c3ccccc3c1)OCCCc1c(C(=O)O)n(C)c3c-2c(Cl)ccc13 [AZD5991] + CC1(C)CCC(CN2CCN(c3ccc(C(=O)NS(=O)(=O)c4ccc(NCC5CCOCC5)c([N+](=O)[O-])c4)c(Oc4cnc5[nH]ccc5c4)c3)CC2)=C(c2ccc(Cl)cc2)C1 [Venetoclax] (first compound max 1 µM, 7x7, partner max 1 µM)
7. CC(=O)c1c(C)c2cnc(Nc3ccc(N4CCNCC4)cn3)nc2n(C2CCCC2)c1=O [Palbociclib] + CC1(C)CCC(CN2CCN(c3ccc(C(=O)NS(=O)(=O)c4ccc(NCC5CCOCC5)c([N+](=O)[O-])c4)c(Oc4cnc5[nH]ccc5c4)c3)CC2)=C(c2ccc(Cl)cc2)C1 [Venetoclax] (first compound max 10 µM, 7x7, partner max 1 µM)

Marked response:
1
0.853
0.621
1
1
1
0.976

Exam item: Report combination Emax from SU-DHL-6 (B-Cell Non-Hodgkin's Lymphoma) testing of Cc1cc2ncnn2cc1Nc1ncc2c(n1)n(C1CCOCC1)c(=O)n2C [AZD7648] + COc1cc([C@@H]2c3cc4c(cc3[C@@H](O[C@@H]3O[C@@H]5CO[C@@H](C)O[C@H]5[C@H](O)[C@H]3O)[C@H]3COC(=O)[C@H]23)OCO4)cc(OC)c1O [Etoposide] (first compound max 10 µM, 7x7, partner max 10 µM)
Marked response: 0.991

---

- Test system: Hs-633T (Other Solid Carcinomas)
- protocol.text: combination Emax (second highest fraction inhibited in the dose matrix, 72 h); higher = more inhibition; extreme values may be limits of the assay
metric.name: combination Emax
One number for each entry.

# example entries with known answers
molecule	recorded.value
CC(=O)c1c(C)c2cnc(Nc3ccc(N4CCNCC4)cn3)nc2n(C2CCCC2)c1=O [Palbociclib] + Cc1c2c(nn1C)CSCc1cc(n(C)n1)CSc1cc(c3ccccc3c1)OCCCc1c(C(=O)O)n(C)c3c-2c(Cl)ccc13 [AZD5991] (first compound max 10 µM, 7x7, partner max 1 µM)	0.519
CC1(C)CCC(CN2CCN(c3ccc(C(=O)NS(=O)(=O)c4ccc(NCC5CCOCC5)c([N+](=O)[O-])c4)c(Oc4cnc5[nH]ccc5c4)c3)CC2)=C(c2ccc(Cl)cc2)C1 [Venetoclax] + CN(C)CCCOc1ccc(-c2ccc3ncc4c(c3c2)n(C2CCOCC2)c(=O)n4C)cn1 [AZD0156] (first compound max 1 µM, 7x7, partner max 1 µM)	0.266
Cn1cnc2c(F)c(Nc3ccc(Br)cc3Cl)c(C(=O)NOCCO)cc21 [Selumetinib] + C[C@@H]1COCCN1C2=NC(=NC(=C2)C3(CC3)[S@](=N)(=O)C)C4=C5C=CNC5=NC=C4 [AZD6738] (first compound max 10 µM, 7x7, partner max 10 µM)	0.748
CC1(C)CCC(CN2CCN(c3ccc(C(=O)NS(=O)(=O)c4ccc(NCC5CCOCC5)c([N+](=O)[O-])c4)c(Oc4cnc5[nH]ccc5c4)c3)CC2)=C(c2ccc(Cl)cc2)C1 [Venetoclax] + CS(=O)(=O)CCNCc1ccc(-c2ccc3ncnc(Nc4ccc(OCc5cccc(F)c5)c(Cl)c4)c3c2)o1 [Lapatinib] (first compound max 1 µM, 7x7, partner max 10 µM)	0.213

Next molecule, please.
Exam item: Fetch value of combination Emax on Hs-633T (Other Solid Carcinomas) for N#Cc1cnc(Nc2cc(NC[C@H]3CNCCO3)c(C(F)(F)F)cn2)cn1 [SRA737] + Nc1ccn([C@@H]2O[C@H](CO)[C@@H](O)C2(F)F)c(=O)n1 [Gemcitabine] (first compound max 10 µM, 7x7, partner max 0.3 µM) .
Marked response: 0.916
